The reported measurements were obtained from ChEMBL document CHEMBL1127893.

# measuredOn: Protein kinase C alpha type (Rattus norvegicus)
readout: pIC50
Friendly reminder that pIC50 comes from taking -log10 of the concentration in mol/L.

[in] Please tell me: pIC50 of CN1C[C@@H]2Cn3c(c(C4=C(c5cn(C)c6ccccc56)C(=O)NC4=O)c4ccccc43)C[C@H]2C1.Cl (stereo in doubt; form 1) , system Protein kinase C alpha type (Rattus norvegicus)?
[out] 8.55

* * *

# measuredOn: Protein kinase C beta type (Rattus norvegicus, UniProt P68403)
# Sequence (P68403 whole entry): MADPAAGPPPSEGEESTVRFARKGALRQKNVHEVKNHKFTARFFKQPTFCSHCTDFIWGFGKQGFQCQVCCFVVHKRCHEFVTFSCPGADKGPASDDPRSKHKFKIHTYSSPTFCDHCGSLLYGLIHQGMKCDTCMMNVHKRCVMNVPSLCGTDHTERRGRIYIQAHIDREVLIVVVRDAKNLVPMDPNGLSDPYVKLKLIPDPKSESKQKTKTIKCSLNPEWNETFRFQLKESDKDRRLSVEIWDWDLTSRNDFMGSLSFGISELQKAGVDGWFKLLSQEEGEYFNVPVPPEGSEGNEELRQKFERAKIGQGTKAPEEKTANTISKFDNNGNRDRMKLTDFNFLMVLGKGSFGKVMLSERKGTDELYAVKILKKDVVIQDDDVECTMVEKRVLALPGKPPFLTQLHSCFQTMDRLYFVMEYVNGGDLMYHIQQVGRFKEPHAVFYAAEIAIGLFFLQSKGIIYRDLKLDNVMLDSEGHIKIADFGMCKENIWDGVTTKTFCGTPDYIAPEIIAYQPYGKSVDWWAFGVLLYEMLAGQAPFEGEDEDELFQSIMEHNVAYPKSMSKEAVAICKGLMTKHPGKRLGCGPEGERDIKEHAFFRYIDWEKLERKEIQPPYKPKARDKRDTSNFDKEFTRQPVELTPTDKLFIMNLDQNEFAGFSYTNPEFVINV
# testDetails: Inhibition of Protein kinase C beta 1
readout: pIC50
Friendly reminder that pIC50 comes from taking -log10 of the concentration in mol/L.

CN1C[C@@H]2Cn3c(c(C4=C(c5cn(C)c6ccccc56)C(=O)NC4=O)c4ccccc43)C[C@H]2C1.Cl (stereo in doubt; form 1)    8.28

[in] Form field: reported pIC50 of "CN(C)C[C@H]1CCn2c(c(C3=C(c4cn(C)c5ccccc45)C(=O)NC3=O)c3ccccc32)C1"
[out] 7.55
